experimental-system: Duffy Antigen Receptor for Chemokines (DARC) (human) (UniProt Q16570)
Sequence (Q16570 whole entry): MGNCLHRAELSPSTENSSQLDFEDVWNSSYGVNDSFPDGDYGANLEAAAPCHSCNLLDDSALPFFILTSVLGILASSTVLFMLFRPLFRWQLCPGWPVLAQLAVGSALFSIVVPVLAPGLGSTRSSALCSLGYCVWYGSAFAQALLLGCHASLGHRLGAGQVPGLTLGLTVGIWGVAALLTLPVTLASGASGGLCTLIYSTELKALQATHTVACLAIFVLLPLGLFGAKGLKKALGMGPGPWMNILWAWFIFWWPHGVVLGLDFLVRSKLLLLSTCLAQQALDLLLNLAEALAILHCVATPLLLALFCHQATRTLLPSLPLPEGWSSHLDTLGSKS
procedure-text: Duffy binding
No end group written: not given here.
readout-type: Kd (µM)

1) VAEKPCKSSTIRRYS (not fully specified (some residues)) [LRD peptide 2(1-15)[MCP-1]] | 25

Values from patent US7238711
